Recorded values, source patent US20250115600A1.

Biological target: AKT1 E17K (Homo sapiens (Human), UniProt P31749, E17K)
Sequence (P31749 whole entry E17K): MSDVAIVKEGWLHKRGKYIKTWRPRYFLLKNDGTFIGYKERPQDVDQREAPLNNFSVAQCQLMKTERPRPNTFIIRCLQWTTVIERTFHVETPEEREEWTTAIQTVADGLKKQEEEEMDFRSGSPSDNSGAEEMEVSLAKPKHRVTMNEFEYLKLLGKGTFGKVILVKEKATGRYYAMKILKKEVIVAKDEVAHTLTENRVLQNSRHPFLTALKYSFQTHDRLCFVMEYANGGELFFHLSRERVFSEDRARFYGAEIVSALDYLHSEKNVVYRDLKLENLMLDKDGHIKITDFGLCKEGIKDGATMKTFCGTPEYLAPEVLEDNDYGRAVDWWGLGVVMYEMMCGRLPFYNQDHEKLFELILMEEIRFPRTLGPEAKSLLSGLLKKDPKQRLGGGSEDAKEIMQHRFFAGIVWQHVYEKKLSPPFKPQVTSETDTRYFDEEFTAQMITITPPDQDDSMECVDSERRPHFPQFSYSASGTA
Experiment: Live cell target engagement (NanoBRET) in HEK293 cells
Type: cell-based
Conditions: HEK293, 2 hours at 37° C.
measured.metric: IC50

// known answers, use as guide
compound	IC50
Nc1ncccc1-c1nc2ccc(-c3ccccc3)nc2n1-c1ccc(CNC(=O)Cc2ccc(C=O)c(O)c2F)cc1	< 100 nM
Nc1ncccc1-c1nc2cccnc2n1-c1ccc(CNCCc2ccc(C=O)c(O)c2F)cc1	> 500 nM

Next compound, please.
Query: Can you share its IC50? I mean this compound: CC(NC(=O)Cc1ccc(C=O)c(O)c1)c1ccc(-n2c(-c3cccnc3N)nc3ccc(-c4ccccc4)nc32)cc1 (stereo not drawn)
Result: < 100 nM

====

Biological target: AKT1 E17K (Homo sapiens (Human), UniProt P31749, E17K)
Experiment: Live cell target engagement (NanoBRET) in HEK293 cells
Type: cell-based
measured.metric: AKT1 E17K IC50: Selectivity vs AKT2
Could you keep your reply to the number by itself?

// known answers, use as guide
compound	measured.metric	experimental.result
Nc1ncccc1-c1nc2ccc(-c3ccccc3)nc2n1-c1ccc(CNCCc2ccc(C=O)c(O)c2F)cc1	AKT1 E17K IC50: Selectivity vs AKT2	3.2
CC(=O)Nc1cc(CCNCc2ccc(-n3c(-c4cccnc4N)nc4cccnc43)cc2)ccc1C=O	AKT1 E17K IC50: Selectivity vs AKT2	38
CC(=O)Nc1cccc(-c2ccc3nc(-c4cccnc4N)n(-c4ccc(CNCCc5ccc(C=O)c(O)c5)cc4)c3n2)c1	AKT1 E17K IC50: Selectivity vs AKT2	6.2
Nc1ncccc1-c1nc2ccc(-c3ccccn3)nc2n1-c1ccc(CNC(=O)Cc2ccc(C=O)c(O)c2)cc1	AKT1 E17K IC50: Selectivity vs AKT2	47
Nc1ncccc1-c1nc2ccc(-c3ccccc3)nc2n1-c1ccc(CNC(=O)c2ccc(O)c(C=O)c2F)cc1	AKT1 E17K IC50: Selectivity vs AKT2	13
CC(C(=O)NCc1ccc(-n2c(-c3cccnc3N)nc3ccc(-c4ccccc4)nc32)cc1)c1ccc(C=O)c(O)c1 (centres unmarked)	AKT1 E17K IC50: Selectivity vs AKT2	180

Query: Can you share its AKT1 E17K IC50: Selectivity vs AKT2? I mean this compound: `CC(C)(C(=O)NCc1ccc(-n2c(-c3cccnc3N)nc3ccc(-c4ccccc4)nc32)cc1)c1ccc(C=O)c(O)c1`
Result: 45

Query: Can you share its AKT1 E17K IC50: Selectivity vs AKT2? I mean this compound: `Nc1ncccc1-c1nc2ccc(-c3ccccc3)nc2n1-c1ccc(CCNCc2ccc(C=O)c(O)c2)cc1`
Result: 18

Query: Can you share its AKT1 E17K IC50: Selectivity vs AKT2? I mean this compound: `CS(=O)(=O)Nc1cccc(-c2ccc3nc(-c4cccnc4N)n(-c4ccc(CNCCc5ccc(C=O)c(O)c5)cc4)c3n2)c1`
Result: 5.9

Query: Can you share its AKT1 E17K IC50: Selectivity vs AKT2? I mean this compound: `Nc1ncccc1-c1nc2ccc(-c3ccccc3)nc2n1-c1ccc(CNCCc2ccc(O)c(C=O)c2)cc1`
Result: 0.72

Query: Can you share its AKT1 E17K IC50: Selectivity vs AKT2? I mean this compound: `Nc1ncccc1-c1nc2ccc(-c3ccccc3)nc2n1-c1ccc(CNC(=O)Cc2ccc(C=O)c(O)c2C(F)(F)F)cc1`
Result: 32

Query: Can you share its AKT1 E17K IC50: Selectivity vs AKT2? I mean this compound: `Nc1ncccc1-c1nc2ccc(-c3cccnc3)nc2n1-c1ccc(CNCCc2ccc(C=O)c(O)c2F)cc1`
Result: 55

Query: Can you share its AKT1 E17K IC50: Selectivity vs AKT2? I mean this compound: `Cc1ccc2nc(-c3cccnc3N)n(-c3ccc(CNC(=O)Cc4ccc(C=O)c(O)c4)cc3)c2n1`
Result: 210
